# Tested on: PBMC from healthy subjects
# assay-method-text: Peptide-specific T cell responses by IFN-γ ELISpot after short term culture, healthy subjects (Example 2)
# Type: cell-based, human
# experimental-context: positive response = SFC/10^6 PBMC greater than 20, pools of overlapping 18-mer peptides at 5 μg/peptide/mL

| input-sequence | frequency of responding subjects, % |
| --- | --- |
| PARYEFLWGPRALAETSYVKVLEYVIKVSARVRFFFPSLREA (listed as Homo sapiens) [P5400_MAGE1] | 100 |
| EMFLQIYKQGGFLGLSNIKFRPGSVVVQLTLAFREGTINVH (listed as Homo sapiens) [P3825_MUC1] | 17 |
| TSSNHSTSPQLSTGVSFFFLSFHISNLQFNSSLEDPST (listed as Homo sapiens) [P3776_MUC1] | 100 |
| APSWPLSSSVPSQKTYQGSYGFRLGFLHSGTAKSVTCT (listed as Homo sapiens) [P103-P53] | 100 |
| VQGYVLIAHNQVRQVPLQRLRIVRGTQLFEDNYALAVL (listed as Homo sapiens) [P1575_HER] | 100 |
| HRLREEILAKFLHWLMSVYVVELLRSFFYVTETTFQKNR (listed as Homo sapiens) [P4540_hTERT] | 67 |
| YEFLWGPRALVETSYVKVLHHMVKISGGPHISYPPLH (listed as Homo sapiens) [P679_MAGE3] | 80 |
